Structures can show the parent of a compound that is named as a salt.
Experimental readout: melting point

Here is how some compounds turned out for melting point.
[[record]]
compound = "CN1Cc2c(ccc3ccoc23)C(c2cc(F)cc(F)c2)C1 (stereo not drawn) (as salt: hydrochloride)"
experimental_readout = "melting point"
measured = "233 to 236 °C"

[[record]]
compound = "Cc1ccc(C2CN(C)Cc3c2ccc2ccoc32)cc1 (single isomer, unassigned) (as salt: maleate)"
experimental_readout = "melting point"
measured = "190 to 191 °C"

[[record]]
compound = "CN1Cc2c(ccc3ccoc23)C(c2ccccc2)C1 (single isomer, unassigned)"
experimental_readout = "melting point"
measured = "81 to 83 °C"

[[record]]
compound = "CN1Cc2c(ccc3ccoc23)C(c2ccccc2)C1 (single isomer, unassigned) (as salt: maleate)"
experimental_readout = "melting point"
measured = "165 to 168 °C"

[[record]]
compound = "Cc1ccc(C2CN(C)Cc3c2ccc2ccoc32)cc1 (single isomer, unassigned) (as salt: hydrochloride)"
experimental_readout = "melting point"
measured = "240 to 246 °C"


Now for a further compound.
Answer with reported melting point of CN1Cc2c(ccc3ccoc23)C(c2ccc(F)cc2)C1 (stereo not drawn) (as salt: hydrochloride)
242 to 257 °C

FYI, the data here is from patent US20060111385A1.
